Every entry's value here was drawn from PubChem BioAssay (NCI).

In this section, each of the molecules is paired with its reported growth.
# System: HOP-92 NSCLC
# test.description: NCI-60 one-dose screen, 48 h (100 = growth as untreated, 0 = no growth, -100 = all killed)
# reported.conditions: 10 µM unless noted
Compounds without any hit were thinned out: in the full panel of roughly 83,000, 20% have a hit.
Kindly answer with a numeric value in %, unit omitted.

Worked examples follow.
>  <molecule>
COC(=O)CNC(=O)[C@@H](OC)[C@@H]1Cc2cc3cc(OC4CC(OC5CC(O)C(O)C(C)O5)C(O)C(C)O4)c(C)c(O)c3c(O)c2C(=O)[C@H]1OC1CC(OC2CC(OC3CC(C)(O)C(O)C(C)O3)C(O)C(C)O2)C(O)C(C)O1 (stereo partly drawn)

>  <measured.endpoint>
growth

>  <measured.value>
9.61

$$$$
>  <molecule>
NC(=O)c1c(OCc2c(F)cc(Br)cc2F)nsc1NC(=O)NCCCCN1CCCC1

>  <measured.endpoint>
growth

>  <measured.value>
-1.17

$$$$
>  <molecule>
COC(=O)c1[nH]cnc1/N=N/N(C)CCO

>  <measured.endpoint>
growth

>  <measured.value>
128

$$$$
>  <molecule>
CC(=O)OCCC/C(=C\c1ccc2ccccc2c1)[N+](=O)[O-]

>  <measured.endpoint>
growth

>  <measured.value>
-90.5

$$$$

Ask | Item: Cc1ncc(-c2ccnc(Nc3ccc(S(C)(=O)=O)cc3)n2)n1C(C)C Test system: HOP-92 NSCLC Read-out: growth Value: ?
Reply | -4.8

Ask | Item: Cc1cc(Nc2ncnc3ccc(NC4=NC(C)(C)CO4)cc23)ccc1Oc1ccn2ncnc2c1 Test system: HOP-92 NSCLC Read-out: growth Value: ?
Reply | 9.05

Ask | Item: FC(F)(F)c1ccc(CNc2ccc(Cc3c[nH]c4ncc(Cl)cc34)cn2)cn1 Test system: HOP-92 NSCLC Read-out: growth Value: ?
Reply | 37.7

Ask | Item: Cc1cc(N2CCCC2)nc(N(CCCNc2ccnc3cc(Cl)ccc23)Cc2ccc3c(c2)OCO3)n1 Test system: HOP-92 NSCLC Read-out: growth Value: ?
Reply | -36

---

# Tested on: SN12C renal
# test.description: NCI-60 one-dose screen, 48 h (100 = growth as untreated, 0 = no growth, -100 = all killed)
# reported.conditions: 10 µM unless noted
Compounds without any hit were thinned out: in the full panel of roughly 83,000, 20% have a hit.
Lab note: compare growth with 20%, writing T if less and F if equal or more.

Before answering, review these 4 worked examples.
>  <compound>
Cc1ccc(Nc2nccc(N(C)c3ccc4c(C)n(C)nc4c3)n2)cc1S(N)(=O)=O

>  <assigned.class>
F

$$$$
>  <compound>
C#Cc1cccc(Nc2ncnc3cc(OC)c(OCCCCCCC(=O)NO)cc23)c1

>  <assigned.class>
T

$$$$
>  <compound>
Cc1cc(C(=O)Nc2cc(Oc3ccc4nc(NC(=O)C5CC5)cn4n3)ccc2C)n(C)n1

>  <assigned.class>
F

$$$$
>  <compound>
COc1c(OCCCN2CCOCC2)ccc2c3n(c(=NC(=O)c4cnc(N)nc4)nc12)CCN3

>  <assigned.class>
T

$$$$

Could you now look at the following compound, please?
Ask | Item COc1cc(C2CC(c3ccc(Cl)cc3)=NN2c2ccc(Cl)cc2)cc(OC)c1OC (stereo not given) : growth beneath 20%, strictly?
Reply | F
